Cited source for all entries: the supplement of paper PMC10567573

B1: ZNF193 (parent)
chain: QCIECGKSFNRHCNLIRHQKIHTV

Variants of: B1
test: protein stability index of a GFP-peptide fusion (GPS, HEK-293T) (PSI 1-6); higher = more stable;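 also: lentivirally expressed fusions sorted by FACS into six bins by GFP to DsRed ratio, PSI derived from sequencing read proportions per bin multiplied by bin number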
applied-conditions: c terminus: a fixed tail appended
Entries are sorted into classes by protein stability index as follows: low value = under 3, medium value = from 3 up to 4, high value = 4 and over

- mutant: "T23C"
  category-label: "medium value"
- mutant: "I21M"
  category-label: "medium value"
- mutant: "S8L"
  category-label: "high value"
- mutant: "L15M"
  category-label: "medium value"
- mutant: "I16V"
  category-label: "medium value"
- mutant: "K7F"
  category-label: "low value"
- mutant: "K20W"
  category-label: "low value"
- mutant: "T23G"
  category-label: "medium value"
- mutant: "R11A"
  category-label: "medium value"
- mutant: "K20R"
  category-label: "medium value"
- mutant: "F9G"
  category-label: "low value"
- mutant: "N10P"
  category-label: "low value"
- mutant: "F9T"
  category-label: "low value"
- mutant: "C2A"
  category-label: "low value"
- mutant: "I3T"
  category-label: "high value"
- mutant: "I21P"
  category-label: "medium value"
- mutant: "K20P"
  category-label: "low value"
- mutant: "E4R"
  category-label: "medium value"
- mutant: "R11N"
  category-label: "high value"
- mutant: "G6I"
  category-label: "low value"
- mutant: "V24N"
  category-label: "high value"
